System: SK-BR-3
experiment.summary: Cytotoxicity against human SK-BR-3 cells assessed as cell viability after 48 hrs by MTT assay
Format: functional, cell-based
experimental.conditions: SK-BR-3, 48 h
Below, each of the compounds is paired with its reported IC50 value.

>  <compound>
CC1(C)C(=O)C=C[C@]2(C)[C@H]3CC[C@@]4(C)[C@H](c5ccoc5)OC(=O)[C@H]5O[C@]54[C@]3(C)[C@H](O)C[C@@H]12

>  <IC50>
12 µM

$$$$
>  <compound>
COC(=O)C[C@H]1[C@]2(C)C3=C(C)[C@H](c4ccoc4)C[C@H]3O[C@@H]2[C@H](OC(C)=O)[C@@H]2[C@]1(C)C(=O)C=C[C@@]2(C)O

>  <IC50>
> 20 µM

$$$$
>  <compound>
COC(=O)C[C@H]1[C@]2(C)C3=C(C)[C@H](c4ccoc4)C[C@H]3O[C@@H]2[C@@H]2OC[C@]3(C)[C@H](OC(C)=O)C[C@H](OC(=O)/C=C/c4ccccc4)[C@@]1(C)[C@@H]23 [OHCHININ ACETATE]

>  <IC50>
> 20 µM

$$$$
>  <compound>
CC(=O)O[C@@H]1C[C@H]2C(C)(C)C(=O)C=C[C@]2(C)[C@H]2CC[C@]3(C)C(=CC[C@H]3[C@H]3COC(=O)C3)[C@@]21C

>  <IC50>
> 20 µM

$$$$
>  <compound>
CC(=O)O[C@@H]1C[C@H]2C(C)(C)C(=O)C=C[C@]2(C)[C@H]2CC[C@]3(C)C(=CC(=O)[C@H]3C3=CCOC3=O)[C@@]21C [AZADIRADIONOLIDE]

>  <IC50>
11.5 µM

$$$$
>  <compound>
C/C=C(/C)C(=O)O[C@H]1C[C@@H](O)[C@@]2(C)CO[C@H]3[C@H]4O[C@@H]5C[C@@H](c6ccoc6)C(C)=C5[C@@]4(C)[C@H](CC(=O)OC)[C@]1(C)[C@@H]32

>  <IC50>
> 20 µM

$$$$
>  <compound>
CC1(C)C(=O)C=C[C@]2(C)[C@H]3CC[C@]4(C)C(=CC(=O)O[C@@]4(O)c4ccoc4)[C@]3(C)[C@H](O)C[C@@H]12

>  <IC50>
> 20 µM

$$$$
>  <compound>
COC(=O)C[C@H]1[C@]2(C)C3=C(C)[C@H](c4ccoc4)C[C@H]3O[C@@H]2[C@H](O)[C@@H]2[C@]1(C)C(=O)C=C[C@@]2(C)C(=O)OC

>  <IC50>
> 20 µM

$$$$
>  <compound>
CC(=O)O[C@@H]1C[C@H]2C(C)(C)C(=O)C=C[C@]2(C)[C@H]2CC[C@@]3(C)C(c4ccoc4)=C(O)C(=O)[C@H]3[C@@]21C

>  <IC50>
> 20 µM

$$$$
>  <compound>
CCC(C)C(=O)O[C@H]1C[C@@H](OC(C)=O)[C@@]2(C(=O)OC)CO[C@H]3[C@@H](O)[C@@](C)([C@]45O[C@@]4(C)C4CC5O[C@@H]5C[C@H](OC)C[C@]45O)[C@@H]4[C@@H](C(=O)OC)OC[C@@]14[C@@H]32 (stereo not given in full)

>  <IC50>
> 20 µM

$$$$

====

Tested on: HL-60
experiment.summary: Cytotoxicity against human HL60 cells assessed as cell viability after 48 hrs by MTT assay
Format: functional, cell-based
experimental.conditions: HL-60, 48 h
pIC50: −log10 of the molar value.
property.measured: pIC50

>  <molecule>
CCC(C)C(=O)O[C@H]1C[C@@H](OC(C)=O)[C@@]2(C(=O)OC)CO[C@H]3[C@@H](O)[C@@](C)([C@]45O[C@@]4(C)C4CC5O[C@@H]5C[C@H](OC)C[C@]45O)[C@@H]4[C@@H](C(=O)OC)OC[C@@]14[C@@H]32 (some centres undefined) [VEPAOL]

>  <assay.target>
HL-60

>  <relation.symbol>
<

>  <value>
4.70

$$$$
>  <molecule>
C/C=C(/C)C(=O)O[C@H]1C[C@@H](OC(C)=O)[C@@]2(C)CO[C@H]3[C@H]4O[C@@H]5CC(=O)C(C)=C5[C@@]4(C)[C@H](CC(=O)OC)[C@]1(C)[C@@H]32

>  <assay.target>
HL-60

>  <relation.symbol>
<

>  <value>
4.70

$$$$
>  <molecule>
CC(=O)O[C@@H]1C[C@H]2C(C)(C)C(=O)C=C[C@]2(C)[C@H]2CC[C@@]3(C)CC(=O)C=C3[C@@]21C [DESFURANOAZADIRADIONE]

>  <assay.target>
HL-60

>  <relation.symbol>
=

>  <value>
4.70

$$$$
>  <molecule>
COC(=O)C[C@H]1[C@]2(C)C3=C(C)[C@H](c4ccoc4)C[C@H]3O[C@@H]2[C@@H]2OC[C@]3(C)[C@H](OC(C)=O)C[C@H](OC(=O)/C=C/c4ccccc4)[C@@]1(C)[C@@H]23 [OHCHININ ACETATE]

>  <assay.target>
HL-60

>  <relation.symbol>
=

>  <value>
5.00

$$$$
>  <molecule>
CC=C(C)C(=O)O[C@@H]1[C@@H]2OC[C@]3(C)[C@H](OC(C)=O)C[C@H](O)[C@](C)([C@H]4CC[C@@](C)([C@@H](C)[C@H]5COC(=O)C5)C[C@]14C)[C@@H]23

>  <assay.target>
HL-60

>  <relation.symbol>
<

>  <value>
4.70

$$$$
>  <molecule>
CC(=O)O[C@@H]1C[C@H]2C(C)(C)C(=O)C=C[C@]2(C)[C@H]2CC[C@]3(C)C(=CC(=O)O[C@]3(O)c3ccoc3)[C@@]21C [NIMOLICINOL]

>  <assay.target>
HL-60

>  <relation.symbol>
<

>  <value>
4.70

$$$$
>  <molecule>
CC(=O)O[C@@H]1C[C@H]2C(C)(C)C(=O)C=C[C@]2(C)[C@H]2CC[C@]3(C)C(=CC(=O)[C@@]3(O)c3ccoc3)[C@@]21C [17-HYDROXYAZADIRADIONE]

>  <assay.target>
HL-60

>  <relation.symbol>
=

>  <value>
4.91

$$$$
>  <molecule>
CC(=O)O[C@@H]1C[C@H]2C(C)(C)C(=O)C=C[C@]2(C)[C@H]2CC[C@]3(C)C(=CC(=O)[C@@H]3c3ccoc3)[C@@]21C [17-EPIAZADIRADIONE]

>  <assay.target>
HL-60

>  <relation.symbol>
=

>  <value>
4.90

$$$$
>  <molecule>
CC1(C)C(=O)C=C[C@]2(C)[C@H]3CC[C@@]4(C)[C@H](c5ccoc5)C(=O)[C@H]5O[C@]54[C@]3(C)[C@H](OC(=O)c3ccccc3)C[C@@H]12

>  <assay.target>
HL-60

>  <relation.symbol>
=

>  <value>
5.51

$$$$

====

Test system: SK-BR-3
experiment.summary: Cytotoxicity against human SK-BR-3 cells assessed as cell viability after 48 hrs by MTT assay
Type: functional, cell-based
experimental.conditions: SK-BR-3, 48 h

>  <compound>
CC(=O)O[C@@H]1C[C@H]2C(C)(C)C(=O)C=C[C@]2(C)[C@H]2CC[C@]3(C)C(=CC(=O)O[C@]3(O)c3ccoc3)[C@@]21C [NIMOLICINOL]

>  <IC50>
> 20 µM

$$$$
>  <compound>
CC=C(C)C(=O)O[C@@H]1[C@@H]2OC[C@]3(C)[C@H](OC(C)=O)C[C@H](O)[C@](C)([C@H]4CC[C@@](C)([C@@H](C)[C@H]5COC(=O)C5)C[C@]14C)[C@@H]23

>  <IC50>
> 20 µM

$$$$
>  <compound>
O=c1[nH]cc(F)c(=O)[nH]1 [FLUOROURACIL]

>  <IC50>
> 20 µM

$$$$

====

Below, each of the compounds is paired with its reported IC50 value.
Tested on: SK-BR-3
experiment.summary: Cytotoxicity against human SK-BR-3 cells assessed as cell viability after 48 hrs by MTT assay
Assay type: functional, cell-based
experimental.conditions: SK-BR-3, 48 h

>  <chemical.structure>
C/C=C(/C)C(=O)O[C@H]1C[C@@H](OC(C)=O)[C@@]2(C)CO[C@H]3[C@H]4O[C@@H]5C[C@@H](c6ccoc6)C(C)=C5[C@@]4(C)[C@H](CC(=O)OC)[C@]1(C)[C@@H]32

>  <assay.target>
SK-BR-3

>  <IC50>
> 20 µM

$$$$
>  <chemical.structure>
CC(=O)O[C@@H]1C[C@H]2C(C)(C)C(=O)C=C[C@]2(C)[C@H]2CC[C@]3(C)C(=CC(=O)[C@]3(O)c3ccoc3)[C@@]21C

>  <assay.target>
SK-BR-3

>  <IC50>
> 20 µM

$$$$
>  <chemical.structure>
COC(=O)C[C@H]1[C@]2(C)C3=C(C)[C@H](c4ccoc4)C[C@H]3O[C@@H]2[C@@H]2OC[C@]3(C)C=CC(=O)[C@@]1(C)[C@@H]23

>  <assay.target>
SK-BR-3

>  <IC50>
1.7 µM

$$$$
